- ASSAY SYSTEM: T1, 4H745-AA
- T1 chain: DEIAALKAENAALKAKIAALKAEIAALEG
- EXPERIMENT NOTES: two-hybrid library CCmax;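 note: natural log of median RNA to DNA barcode read ratio; higher means stronger binding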
- EXPERIMENTAL PARAMETERS: mean of both orientations
MEASURED ATTRIBUTE: interaction score
Answers are plain numbers.

Quick check: interaction score of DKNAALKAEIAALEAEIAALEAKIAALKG [4H3590-AA] ? 1.02

# get_value(readout='interaction score', item= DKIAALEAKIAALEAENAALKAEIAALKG [4H2330-AA] ) -1.42

Item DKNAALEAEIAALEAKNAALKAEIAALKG [4H3130-AA] has what recorded interaction score? -1.54

Items follow; give interaction score for each.
1. DEIAALEAKNAALKAEIAALKAEIAALKG [4H458-AA]
2. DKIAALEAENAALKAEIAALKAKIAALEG [4H2253-AA]
3. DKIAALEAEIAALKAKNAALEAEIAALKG [4H2162-AA]
4. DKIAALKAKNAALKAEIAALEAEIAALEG [4H3009-AA]

1.1
0.647
-0.859
1.77

Item under review: DEIAALKAEIAALEAENAALEAKNAALKG [4H536-AA] . Reported interaction score? -1.07
